- Tested on: MALME-3M melanoma
- Assay Procedure: NCI-60 one-dose screen, 48 h
- Reported Conditions: 10 µM unless noted
The panel holds about 83,000 compounds, 20% with a hit somewhere; the sample as a whole holds those more often. The source made the active and inactive calls. The calls were made as follows: active = growth percent below 10; inactive = the rest.
# output must be one of active, inactive

A selection of reference data follows.
[[record]]
compound = "Cc1[nH]c2ccc(F)cc2c1CCNC(=O)C1CCN(C(=O)c2ccccc2)CC1"
discrete_label = "inactive"

[[record]]
compound = "COc1cc(-c2nn(-c3cccc(NC(=O)c4cccc(C(F)(F)F)c4)c3)cc2-c2ccncc2)ccc1Cl"
discrete_label = "inactive"

[[record]]
compound = "COc1ccc(C(=O)N2NC(=O)/C(=C/c3ccccc3F)N=C2c2ccccc2)cc1"
discrete_label = "inactive"


stdin: # lookup: test call for C/C(=N/NC(=S)Nc1ccccc1)c1nc2ccc(Cl)cc2[nH]1
stdout: active

stdin: # lookup: test call for COc1ccc(Nc2nn3c(C)cc(C)nc3c2C(=O)Nc2ccc(C)cc2)c(OC)c1
stdout: inactive

stdin: # lookup: test call for COc1ccc(-c2nc(-c3nc4cc(C)c(C)cc4[nH]3)cc3c2[nH]c2ccccc23)cc1
stdout: inactive

stdin: # lookup: test call for O=C(c1ccccc1)c1c(/C=C/c2ccccc2)c2ccccc2[nH]c1=O
stdout: inactive

stdin: # lookup: test call for COc1ccc2c(c1)NC1=C(C(=O)OC1)C2c1cc(OC)c2c(c1)OCO2 (centres undefined)
stdout: inactive

stdin: # lookup: test call for C=C1CCC2C(C)(CO)C(O)CCC2(C)C1C/C=C1/C(=O)OCC1O/C=C/c1ccccc1 (centres undefined)
stdout: inactive

* * *

- Tested on: OVCAR-3 ovarian
- Assay Procedure: NCI-60 one-dose screen, 48 h
- Reported Conditions: 10 µM unless noted
Compounds without any hit were thinned out: in the full panel of roughly 83,000, 20% have a hit. Activity calls are given as the source filed them. The calls were made as follows: active = growth percent below 10; inactive = the rest.
# output must be one of active, inactive

A selection of reference data follows.
[[record]]
molecule = "CCOC(=O)C1CCNC(=O)C1=O (configuration not stated)"
discrete_label = "inactive"

[[record]]
molecule = "O=C1NN(C(=O)c2ccc(Cl)cc2)C(c2ccccc2)=N/C1=C\\c1ccc(F)cc1"
discrete_label = "inactive"

[[record]]
molecule = "COc1ccc2c(c1)C(c1cc(OC)c3c(c1)OCO3)C1=C(COC1=O)N2 (configuration not stated)"
discrete_label = "active"

[[record]]
molecule = "O=C(O)/C=C/C(=O)c1ccc(Cl)cc1"
discrete_label = "inactive"

[[record]]
molecule = "CC(=O)Oc1csc(N(C(C)=O)c2cccc(C(F)(F)F)c2)n1"
discrete_label = "inactive"

[[record]]
molecule = "Nc1nnc(-c2ccc3ccccc3c2O)o1"
discrete_label = "inactive"


Now look at this one.
stdin: # lookup: test call for c1ccc(-c2nnc(-c3ccccn3)s2)nc1
stdout: inactive

* * *

- System: NCI-H522 lung
- Assay Procedure: NCI-60 one-dose screen, 48 h (100 = growth as untreated, 0 = no growth, -100 = all killed)
- Reported Conditions: 10 µM unless noted
The panel holds about 83,000 compounds, 20% with a hit somewhere; the sample as a whole holds those more often.
Measured Quantity: growth (%)
Provide the reading as a plain figure in %.

stdin: Using the record for CN(C[C@H]1Cc2c(cccc2N2CCN(Cc3ccccn3)CC2)CN1)[C@H]1CCCc2cccnc21 , state its measured growth.
stdout: 95.5

stdin: Using the record for Cc1cc(N/N=C/c2nc(-c3ccc(Br)cc3)oc2C)c2cc(Cl)ccc2n1 , state its measured growth.
stdout: 76.5

stdin: Using the record for Nc1ccc(C(=O)CSc2nc3ccccc3[nH]2)cc1 , state its measured growth.
stdout: 101

stdin: Using the record for O=C(/C=C/c1c[nH]c2ccccc12)c1ccc(O)c(CN2CCN(c3ccc(F)cc3)CC2)c1 , state its measured growth.
stdout: 102

stdin: Using the record for Cc1ccc(C(=O)NCCCNc2nccc(-n3ccc4cccnc43)n2)cc1 , state its measured growth.
stdout: 88

stdin: Using the record for COc1cccc(-c2nc3sccn3c2-c2ccnc(NCCCNS(=O)(=O)c3ccc(C(F)(F)F)cc3)c2)c1 , state its measured growth.
stdout: 68.4

stdin: Using the record for COc1cc(-c2nc(N=Nc3c(O)[nH]c4ccc(Br)cc34)[nH]c(=O)c2C#N)cc(OC)c1OC , state its measured growth.
stdout: 84.9

stdin: Using the record for CCN(CC)CCOc1ccc(/C(=C(/C)c2ccccc2)c2ccc(OC(C)=O)cc2)cc1 , state its measured growth.
stdout: 102

stdin: Using the record for COc1ccc(-c2ccc(C)n2-c2ccc(-c3nc4ccccc4s3)cc2)cc1 , state its measured growth.
stdout: 89.4

stdin: Using the record for Cc1ccc(N2CCN(C(C)C(N)=O)CC2)cc1 (stereo not given) , state its measured growth.
stdout: 90.7

stdin: Using the record for C=C[C@@H]1C[C@@H]2Cc3ccccc3N1O2 , state its measured growth.
stdout: 120

stdin: Using the record for COc1ccc(/C=N\NC(=O)CN2CCN(c3cc4c(cc3F)c(=O)c(C(=O)N/N=C/c3ccc(OC)c(OC)c3)cn4C3CC3)CC2)cc1OC , state its measured growth.
stdout: 7.49

stdin: Using the record for C=C(C)[C@@H]1CC[C@]2(C(=O)N3CCNCC3)CC[C@]3(C)[C@H](CC[C@@H]4[C@@]5(C)C/C(=C/c6ccncc6)C(=O)C(C)(C)[C@@H]5CC[C@]43C)[C@@H]12 , state its measured growth.
stdout: 96.8

stdin: Using the record for COc1ccc2c(c1)[nH]c(=O)c1c3cccc(F)c3cn21 , state its measured growth.
stdout: -4.04

stdin: Using the record for N[C@@H]1CCN(C(=O)c2cc3cc(Cl)c(F)c(F)c3[nH]2)C1 , state its measured growth.
stdout: 80.1

stdin: Using the record for Cc1ccc(-c2cc3nc(C(Cl)Cl)nc(-c4ccccc4C)n3n2)cc1 , state its measured growth.
stdout: 69.9

stdin: Using the record for C=C1CCC2C3(C)COC(c4ccccc4)OC3CCC2(C)C1/C=C/C1=CCOC1=O (stereo not given) , state its measured growth.
stdout: 63.6

* * *

- Tested on: SK-MEL-28 melanoma
- Assay Procedure: NCI-60 one-dose screen, 48 h (100 = growth as untreated, 0 = no growth, -100 = all killed)
- Reported Conditions: 10 µM unless noted
This is part of a sample that, as a whole, favours compounds with a hit. Of some 83,000 tested, about 20% had one in any assay. Activity calls are given as the source filed them. The calls were made as follows: active = growth percent below 10; inactive = the rest.
Measured Quantity: growth

stdin: Lab note: record growth of O=C(Nc1cccc(-n2cc(-c3ccncc3)c(-c3ccc(Cl)c(O)c3)n2)c1)Nc1cc(C(F)(F)F)cc(C(F)(F)F)c1 tested on SK-MEL-28 melanoma.
stdout: -62.4% (active)

stdin: Lab note: record growth of Clc1cc2c(nn1)Nc1ccccc1S2 tested on SK-MEL-28 melanoma.
stdout: 109% (inactive)

* * *

- System: SK-MEL-5 melanoma
- Assay Procedure: NCI-60 one-dose screen, 48 h
- Reported Conditions: 10 µM unless noted
The panel holds about 83,000 compounds, 20% with a hit somewhere; the sample as a whole holds those more often. Active and inactive are the calls of the source. How the source made its calls: active means growth percent below 10; inactive means the rest.
# output must be one of active, inactive

stdin: # lookup: test call for Cc1[nH]c2ccc(F)cc2c1CCNC(=O)C1CCN(C(=O)c2ccccc2)CC1
stdout: inactive

stdin: # lookup: test call for C=C1CCC2C(C)(CO)C(O)CCC2(C)C1C/C=C1/C(=O)OCC1O/C=C/c1ccccc1 (centres undefined)
stdout: inactive

stdin: # lookup: test call for COc1ccc(Nc2nn3c(C)cc(C)nc3c2C(=O)Nc2ccc(C)cc2)c(OC)c1
stdout: inactive

stdin: # lookup: test call for COc1cc(-c2nn(-c3cccc(NC(=O)c4cccc(C(F)(F)F)c4)c3)cc2-c2ccncc2)ccc1Cl
stdout: active

stdin: # lookup: test call for C=C1C(=O)O[C@H]2[C@H]1CC/C(Cn1cc(-c3cccc(Cl)c3)nn1)=C\CC[C@@]1(C)O[C@@H]21
stdout: active

stdin: # lookup: test call for NC(=O)c1c(NC(=S)Nc2ccc(OC(F)(F)F)cc2)sc2c1CCC1(C2)OCCO1
stdout: inactive

* * *

- Tested on: HT29 colon
- Assay Procedure: NCI-60 one-dose screen, 48 h (100 = growth as untreated, 0 = no growth, -100 = all killed)
- Reported Conditions: 10 µM unless noted
About 83,000 compounds went through this panel and 20% of them were active in at least one assay; those are over-represented in the sample as a whole. Activity calls are given as the source filed them. How the source made its calls: active means growth percent below 10; inactive means the rest.
Listed below: growth values for each entry.

[[record]]
molecule = "COc1cccc(-c2cc3c(O)cc(C#N)cc3[nH]2)c1"
measurement_target = "HT29 colon"
measured_quantity = "growth"
result = "94.6% (inactive)"

[[record]]
molecule = "COc1ccc(C(=O)N2NC(=O)/C(=C/c3cn(-c4ccccc4)nc3-c3ccccc3)N=C2c2ccccc2)cc1"
measurement_target = "HT29 colon"
measured_quantity = "growth"
result = "99% (inactive)"

[[record]]
molecule = "CN(CCCCCl)P(=O)(OCc1ccc([N+](=O)[O-])o1)C(F)(F)C[C@H](NC(=O)CNC(=O)c1ccc(N=[N+]=[N-])cc1)C(=O)NCCc1ccc(O)cc1 (stereo partly drawn)"
measurement_target = "HT29 colon"
measured_quantity = "growth"
result = "86.3% (inactive)"


stdin: Using the record for O=C(/C=C\c1cccc([N+](=O)[O-])c1)/C=C/c1cccc([N+](=O)[O-])c1 , state its measured growth.
stdout: 9.81% (active)

stdin: Using the record for COc1cc(Nc2ncccc2C(=O)NCc2cn(Cc3cccc(Oc4ccccc4)c3)nn2)cc(OC)c1 , state its measured growth.
stdout: 8.47% (active)

stdin: Using the record for C=C1C(=O)O[C@H]2[C@H]1CC/C(Cn1cc(CNC(=O)/C=C/c3c[nH]c4ccccc34)nn1)=C\CC[C@@]1(C)O[C@@H]21 , state its measured growth.
stdout: 92.4% (inactive)

stdin: Using the record for NC(=N\N=C/c1ccc(O)cc1)/C(N)=N\N=C/c1ccc(O)cc1 , state its measured growth.
stdout: 105% (inactive)

stdin: Using the record for CC(=O)Nc1ccc(/C=C/C(=O)c2ccccc2)cc1 , state its measured growth.
stdout: 83.8% (inactive)
